# Tested on: Plasmodium berghei
# protocol: Screen against P. berghei liver stage (PbLuc), transformed with Luciferase, at 2uM
# Assay type: functional, HepG2
# setupConditions: tested at 2 uM
In all, about 68,000 compounds went through this assay and about 2,700 (4%) showed an effect of 50% or more. The entries come from a sample that favours strong results as a whole.
Listed below: INHIBITION values for each entry.

compound | INHIBITION, %
CC(C)C(=O)N(C)Cc1nnc2n1CCCCC2 | 21.82
c1cc(-c2cncc(C3CCNCC3)n2)n[nH]1 | 29.25
Cc1nnc(N2C[C@@H]3CCCO[C@@H]3[C@H](N3CCCC3=O)C2)s1 | 21.57
O=C(NCCC1=CCCCC1)c1ccc(-n2cccc2)nc1 | 46.17
O=C(COc1cccc2c1CCC2=O)NCc1ccccc1Cl | -21.15
Cc1nc(CNC(=O)Nc2cc(F)ccc2N2CCN(C)CC2)no1 | 29.53
O=C(NCCn1ccc(-c2ccncc2)n1)c1ccc2c(c1)OCO2 | 6.33
Cc1ccc(CN2CCOC(C)(c3cnn(C)c3)C2)cc1 (stereo not given) | 21
O=C(NCCc1ccccc1)NCC(O)c1cccs1 (stereo not given) | 1.48
CNC(=O)C1Cn2ccnc2C2(CCN(Cc3cccc(C)n3)CC2)O1 (stereo not given) | -15.95
CC(=O)N1N=C(c2cccs2)OC1C(=O)Nc1ccc(C(C)C)cc1 (stereo not given) | 19.09
NC(=O)NCC(=O)N1CCC(c2cc(-c3ccccc3Cl)n[nH]2)CC1 | 39.65
O=S(=O)(c1ccccc1)N1CCC2(CCCN2Cc2ccc(Cl)cc2)C1 (stereo not given) | -28.17
CC(Cn1cncn1)NCc1nncn1C1CCCCC1 (stereo not given) | -28.93
CC(C)C(Sc1ccccc1)C(=O)N(C)Cc1nnc2n1CCC2 (stereo not given) | 64.39
